Test system: W2
Assay: qHTS profiling for inhibitors of Plasmodium falciparum proliferation (AID 504749); further: nearly all actives have a fitted effect of over 60% in size
Settings: P. falciparum in erythrocytes, SYBR Green DNA, 72 h; series mostly up to 28.7 µM
Results filed as inconclusive are left out. The source made the active and inactive calls. The call rests on the fitted dose curve; in most records, active means well fitted inhibition curve with a large enough effect; inconclusive means small, poorly fitted or top-dose-only effect; inactive means flat fitted curve, though single readings scatter.
Labels: active, inactive

* CN(C)C=Nc1c(I)cc(I)c(CCC(=O)O)c1I | inactive
* COC1=C(OC)C(=O)C(C/C=C(\C)CC/C=C(\C)CC/C=C(\C)CC/C=C(\C)CC/C=C(\C)CC/C=C(\C)CC/C=C(\C)CC/C=C(\C)CC/C=C(\C)CCC=C(C)C)=C(C)C1=O | inactive
* O=P(O)(O)OP(=O)(O)O | active
* FC(F)OC(Cl)C(F)(F)F (stereo not given) | inactive
* C=CC(=O)O | inactive
* CC(C)Cc1ccc([C@@H](C)C(=O)NS(C)(=O)=O)cc1 | inactive
* FCOC(C(F)(F)F)C(F)(F)F | inactive
* CCOC(=O)[C@@H](N)CS | inactive
* C=CC[C@@H]1/C=C(\C)C[C@H](C)C[C@H](OC)[C@H]2O[C@@](O)(C(=O)C(=O)N3CCCC[C@H]3C(=O)O[C@H](/C(C)=C/[C@@H]3CC[C@@H](O)[C@H](OC)C3)[C@H](C)[C@@H](O)CC1=O)[C@H](C)C[C@@H]2OC | active
* OCl | inactive

----------
Tested on: DFO2036
Assay: qHTS profiling for inhibitors of Plasmodium falciparum proliferation (AID 504749); further: nearly all actives have a fitted effect of over 60% in size
Details: P. falciparum in erythrocytes, SYBR Green DNA, 72 h; series mostly up to 28.7 µM
Experimental: NIH National Institute of Allergy and Infectious Diseases [NIAID] NIH Chemical Genomics Center [NCGC] […] Because mature erythrocytes lack DNA, only Plasmodium-derived DNA is detected. NCGC Assay Protocol Summary: The SYBR Green viability assay was adapted from a method described previously (Plouffe et al., 2008). […] The following morning, fluorescence intensity at 485(14) nm excitation and 535(25) nm emission wavelengths was measured on an EnVision (Perkin Elmer) plate reader. […]
Inconclusive results are not listed. Active and inactive are the calls of the source. Calls follow the shape of the dose curve; as a rule, active = well fitted inhibition curve with a large enough effect; inconclusive = small, poorly fitted or top-dose-only effect; inactive = flat fitted curve, though single readings scatter.
Labels: Yes (active), No (inactive)

* CCC(=O)c1ccc2c(c1)N(CCCN1CCN(CCO)CC1)c1ccccc1S2 | Yes
* c1ccc2ccccc2c1 | No
* CCCC(=O)O | No
* O=C(NNCNNC(=O)c1ccncc1)c1ccncc1 | No
* O=C(CCCN1CCC(C(=O)c2ccc(F)cc2)CC1)c1ccc(F)cc1 | No
* CC12CCC(C[N+](C)(CCC[N+](C)(C)C)C1)C2(C)C (configuration not stated) | No
* C=CC(=O)O | No

----------
Test: Cell Viability - LYMP1-002 - Assay at 24 hr (AID 993)
Settings: LYMP1-002 lymphoblastoid cells viability; series mostly up to 92.2 µM
The source made the active and inactive calls. Calls come from the whole dose curve; as a rule, active = well fitted cell-killing curve with a large enough effect; inconclusive = small, poorly fitted or top-dose-only effect; inactive = flat fitted curve, though single readings scatter.
Labels: label 1 = active, label 0 = inactive

* Oc1ccc(/C=C/c2cc(O)cc(O)c2)cc1 | label 0
* NCCN | label 0
* C[C@H](CCC(=O)O)[C@H]1CC[C@H]2[C@@H]3CC[C@@H]4C[C@H](O)CC[C@]4(C)[C@H]3C[C@H](O)[C@]12C | label 0
* CC(C)O | label 0
* OCl | label 0
* Nc1ccc(N=Nc2ccccc2)c(N)n1 | label 0
* NC(N)=O | label 0
* CCCCC | label 0
* CC1=CCC2CC1C2(C)C (configuration not stated) | label 0
* CC/C=C\C/C=C\C/C=C\CCCCCCCC(=O)O | label 0
* C=C1C(CCl)(CCl)C2(Cl)C(Cl)C(Cl)C1(Cl)C2(Cl)Cl (configuration not stated) | label 1
* c1ccc2ccccc2c1 | label 0
* Nc1nccs1 | label 0
* O=c1n(CC2CO2)c(=O)n(CC2CO2)c(=O)n1CC1CO1 (configuration not stated) | label 1
* COC(=O)c1ccccc1O | label 0
* ClC(Cl)Cl | label 0
* CC1=CC(=O)NS(=O)(=O)O1 | label 0

----------
Tested on: KB-3-1
Experiment: Cytotoxic Profiling of Annotated Libraries Using Quantitative High-Throughput Screening (AID 1296008); further: on the % scale 0 is the no-effect control and ±100 the full control effect; nearly all actives have a fitted effect of over 60% in size
Settings: Five cell lines viability, CellTiter-Glo ATP luminescence, 48-72 h; stronger effect = lower value
Records with an inconclusive call do not appear. The source made the active and inactive calls. Calls follow the shape of the dose curve; as a rule, active = well fitted inhibition curve with a large enough effect; inconclusive = small, poorly fitted or top-dose-only effect; inactive = flat fitted curve, though single readings scatter.
The compounds listed here are annotated with their max response.
readout.name: max response

- C[C@H](NCCc1ccc(O)cc1)[C@H](O)c1ccc(O)cc1: -13.6% (inactive)
- C=Cc1c(C)c2cc3nc(cc4[nH]c(cc5nc(cc1[nH]2)C(C)=C5CCC(=O)OC)c(CCC(=O)O)c4C)[C@@]1(C)C3=CC=C(C(=O)OC)[C@H]1C(=O)OC: -15.7% (inactive)
- CCCCCCCCCCCC(=O)N(CCO)CCO: -11.5% (inactive)
- O=[N+]([O-])O[C@@H]1CO[C@H]2[C@@H]1OC[C@@H]2O: -3.81% (inactive)
- C[N+]1(C)[C@@H]2CC(OC(=O)C(O)(c3cccs3)c3cccs3)C[C@H]1[C@@H]1O[C@@H]12 (stereo not given in full): -8.8% (inactive)

----------
Assay: qHTS Assay for Identifying Gametocytocidal Compounds (AID 743244);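 further: on the % scale 0 is the no-effect control and ±100 the full control effect; actives lower the fluorescent signal which means gametocytes are killed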
Conditions: P. falciparum 3D7 stage III-V gametocytes, alamarBlue, 72 h; stronger effect = lower value
Description: Malaria cases and deaths have dropped 50% in 29 countries since 2000 due to the combined effects of long-lasting insecticidal bednets, indoor residual spraying, and artemisinin-based combination therapies (ACTs). […] Within live cells, the nonfluorescent resazurin is reduced to resorufin, a bright red fluorescence dye. Fluorescence decreases upon treatment of gametocytocidal compounds. […]
Inconclusive results are not listed.
readout.name: max response (%)

• CO/N=C(\C(=O)N[C@@H]1C(=O)N2C(C(=O)O)=C(CSc3nnnn3C)CS[C@H]12)c1csc(N)n1 = 2.87
• CNCC(O)c1ccc(OC(=O)C(C)(C)C)c(OC(=O)C(C)(C)C)c1 (stereo not drawn) = -11.6
• CCC(Cc1c(I)cc(I)c(O)c1I)C(=O)O (stereo not drawn) = 11.2
• CC(C)(COP(=O)(O)OP(=O)(O)OC[C@H]1O[C@@H](n2cnc3c(N)ncnc32)[C@H](O)[C@@H]1OP(=O)(O)O)C(O)C(=O)NCCC(=O)NCCS (stereo partly drawn) = -9.49
• CC/C=C\C/C=C\C/C=C\C/C=C\C/C=C\CCCC(=O)O = -4.05
• CC(O)[C@H]1CC[C@H]2[C@@H]3CC[C@@H]4C[C@@H](O)CC[C@]4(C)[C@H]3CC[C@]12C (stereo partly drawn) = 4.2
• NCC(O)CC(=O)O (stereo not drawn) = 10.8
• CCCCCCCCCCCCCCCCCCCCCC(=O)Nc1ccn([C@@H]2O[C@H](CO)[C@@H](O)[C@@H]2O)c(=O)n1 = -10.3
• CO[C@H]1C[C@@H]2CC[C@@H](C)[C@@](O)(O2)C(=O)C(=O)N2CCCC[C@H]2C(=O)O[C@H]([C@H](C)C[C@@H]2CC[C@@H](OC(=O)C(C)(CO)CO)[C@H](OC)C2)CC(=O)[C@H](C)/C=C(\C)[C@@H](O)[C@@H](OC)C(=O)[C@H](C)C[C@H](C)/C=C/C=C/C=C/1C = -3.38
• C=CCCCCCCCCC(=O)OC = 16.7
• COc1ccc2c(=O)c(C)c(-c3ccccc3)oc2c1CN(C)C = 1.87
• CCOc1ccc(S(=O)(=O)O)c2cccnc12 = 1.62
• CN[C@@H]1[C@@H](O[C@H]2O[C@H](CO)[C@@H](N)[C@H](O)[C@H]2O)O[C@H]2C[C@@H](N)[C@@H](O[C@H]3[C@H](O)[C@@H](O)[C@H](N)C[C@@H]3N)O[C@@H]2[C@@H]1O = 4.88
• OC[C@H]1OC([S-])[C@H](O)[C@@H](O)[C@@H]1O.[Au+] (stereo partly drawn) = -13.3
• CCCc1ccc(C(=O)O)cc1 = 0.792
• C/C(=C\C(=O)OCCCCCCCCC(=O)O)C[C@@H]1OC[C@H](C[C@@H]2O[C@H]2[C@@H](C)[C@H](C)O)[C@@H](O)[C@H]1O = -6.76
• COC(=O)c1ccccc1O = 3.79
• C=CC(C)(O)CC/C=C(\C)CCC=C(C)C (stereo not drawn) = -0.0803

----------
Tested on: CP329
Experiment: qHTS profiling for inhibitors of Plasmodium falciparum proliferation (AID 504749); further: nearly all actives have a fitted effect of over 60% in size
Settings: P. falciparum in erythrocytes, SYBR Green DNA, 72 h; series mostly up to 28.7 µM
Records with an inconclusive call do not appear. The source made the active and inactive calls. The call rests on the fitted dose curve; in most records, active means well fitted inhibition curve with a large enough effect; inconclusive means small, poorly fitted or top-dose-only effect; inactive means flat fitted curve, though single readings scatter.
Labels: active, inactive

• CC(C)[C@@H](N)C(=O)O = inactive
• CCCCCCCCCCCC(=O)OCC(O)CO (stereo not given) = inactive
• CC1CC(OC(=O)C(O)c2ccccc2)CC(C)(C)C1 (stereo not given) = inactive
• CS(=O)(=O)OCC(O)C(O)COS(C)(=O)=O (stereo not given) = inactive
• CC(CCc1ccc(O)cc1)NCC(O)c1ccc(O)cc1 (stereo not given) = inactive
• O=[N+]([O-])c1c(Cl)cccc1-c1c[nH]cc1Cl = inactive
• CN1C(C(=O)Nc2ccccn2)C(=O)c2sc(Cl)cc2S1(=O)=O (stereo not given) = inactive
• NC(=O)[C@@H]1CCCN1C(=O)[C@H](Cc1cnc[nH]1)NC(=O)[C@@H]1CCC(=O)N1 = inactive
• O=C(O)CCC/C=C\C[C@@H]1[C@@H](/C=C/[C@@H](O)COc2cccc(C(F)(F)F)c2)[C@H](O)C[C@@H]1O = inactive
• FC(F)(F)COCC(F)(F)F = inactive
• C=CCOc1ccc(CC(=O)O)cc1Cl = inactive
• CCCCC[C@H](O)/C=C/[C@H]1[C@H](O)CC(=O)[C@@H]1C/C=C\CCCC(=O)O = inactive
• CCCC(=O)O = inactive
• Cc1ncc(C[n+]2csc(CCO)c2C)c(N)n1 = inactive
• O=C(CCCN1CCC(C(=O)c2ccc(F)cc2)CC1)c1ccc(F)cc1 = inactive
• O=C(O)Cc1cc(I)c(Oc2ccc(O)c(I)c2)c(I)c1 = inactive
• OCC1(CO)COC(C(Cl)(Cl)Cl)OC1 = inactive
• CC(C)NCC(O)COc1ccccc1-n1cccc1 (stereo not given) = inactive
• O=C(NNCS(=O)(=O)O)c1ccncc1 = inactive
• FCOC(C(F)(F)F)C(F)(F)F = inactive
• c1ccc2c(c1)Sc1ccccc1N2CCN1CCCC1 = active
• CCC(C(=O)NC(N)=O)c1ccccc1 (stereo not given) = inactive
• CSc1nc2cc(Oc3cccc(Cl)c3Cl)c(Cl)cc2[nH]1 = active
• NC(=O)C1c2ccccc2CCc2ccccc21 = inactive
• C[C@H](CCC(=O)O)[C@H]1CC[C@H]2[C@@H]3CC[C@@H]4C[C@H](O)CC[C@]4(C)[C@H]3C[C@H](O)[C@]12C = inactive
• COc1ccccc1N1CCN(CCCC(=O)c2ccc(F)cc2)CC1 = inactive
• CC(=O)Oc1cccc(C(=O)O)c1OC(C)=O = inactive
• C[C@H](CCCC(C)(C)O)[C@H]1CC[C@H]2[C@@H]3CC=C4C[C@@H](O)CC[C@]4(C)[C@H]3CC[C@]12C = inactive
• NCCN = inactive
• COc1cc(C)c(/C=C/C(C)=C/C=C/C(C)=C/C(=O)O)c(C)c1C = inactive
• CC(CNC(=O)c1cccnc1)NC(=O)c1cccnc1 (stereo not given) = inactive
• CC(C)O = inactive
• CCCCCc1ccc(C)cc1O = inactive
• O=C(CCCCCCCCCCCCC1CCCC1)Nc1ccc(S(=O)(=O)c2ccc(NC(=O)CCCCCCCCCCCCC3CCCC3)cc2)cc1 = inactive
• NC(=O)[C@H]1O[C@@H](O)[C@H](O)[C@@H](O)[C@@H]1O = inactive
• F[Si-2](F)(F)(F)(F)F = inactive
• O=C(O)/C=C/c1ccccc1 = inactive
• CC(=O)Nc1c(I)c(C(=O)O)c(I)c(N(C)C(C)=O)c1I = inactive
• CC1=CC(=C(c2ccc(N)cc2)c2ccc(N)cc2)C=CC1=N = active
• Nc1ncnc2c1ncn2CCOCP(=O)(O)O = inactive
• CCN(CC)CCOc1ccc2nc(N(C)C)sc2c1 = inactive
• O=C(O)CCC/C=C\C[C@@H]1[C@@H](/C=C/[C@@H](O)COc2cccc(Cl)c2)[C@H](O)C[C@@H]1O = inactive
• CCCCCCCCCC(=O)NO = inactive
• Cc1cccc(C)c1NC(=O)C1CCCCN1C (stereo not given) = inactive
• CCCOc1cc(N)ccc1C(=O)OCCN(CC)CC = inactive
• O=C(OCc1ccccc1)c1ccc(O)cc1 = inactive
• CCN(CC)C(=O)c1cccnc1 = inactive
• N[C@@H](Cc1cc(I)c(Oc2ccc(O)c(I)c2)c(I)c1)C(=O)O = inactive
• O=C1c2ccccc2C(=O)c2c1ccc(O)c2O = inactive
• OC/C=C/c1ccccc1 = inactive
